Tested on: R. flavefaciens
Assay type: cell-based
condition: strain FD1; Table IV (separate study)
For each record, write down the corresponding Minimal Inhibitory Concentration (bioactivity data).
# respond with the number and nothing more

stdin: Record request: Minimal Inhibitory Concentration (bioactivity data) value, item C=C(NC(=O)C(=C)NC(=O)C(=C)NC(=O)c1ccc2c(n1)-c1nc(oc1C)C(C)NC(=O)c1csc(n1)C(C)NC(=O)c1nc(oc1C)CNC(=O)C(C(C)C)NC(=O)c1csc-2n1)C(N)=O (stereo not drawn) [Antibiotic 10381x]
stdout: 100

stdin: Also check C=C(NC(=O)c1ccc2c(n1)-c1coc(n1)C(=C)NC(=O)C(=C)NC(=O)c1nc(oc1C)C(=CC)NC(=O)c1csc(n1)C(OC)NC(=O)c1nc(oc1C)C(=CC(C)O)NC(=O)C(C(C)O)NC(=O)c1csc-2n1)C(N)=O (stereo not drawn) [Antibiotic 10381y]
stdout: 0.4

stdin: Also check C=C(NC(=O)C(=C)NC(=O)C(=C)NC(=O)c1ccc2c(n1)-c1coc(n1)C(=C)NC(=O)C(=C)NC(=O)c1nc(oc1C)/C(=C/C)NC(=O)c1csc(n1)C(OC)NC(=O)c1nc(oc1C)/C(=C/C(C)O)NC(=O)[C@H]([C@@H](C)O)NC(=O)c1csc-2n1)C(N)=O (stereo partly drawn) [Antibiotic 10381b, sulfomycin I, reference compound]
stdout: 1.6

stdin: Also check C=C(NC(=O)C(=C)NC(=O)C(=C)NC(=O)c1ccc2c(n1)-c1coc(n1)C(=C)NC(=O)C(=C)NC(=O)c1nc(oc1C)C(=CC)NC(=O)c1csc(n1)CNC(=O)c1nc(oc1C)C(=CC(C)O)NC(=O)C(C(C)O)NC(=O)c1csc-2n1)C(N)=O (stereo not drawn) [Antibiotic 10381pre-b]
stdout: 25.0

stdin: Also check C=C1NC(=O)c2nc(oc2C)C(=CC)NC(=O)c2csc(n2)C(OC)NC(=O)c2nc(oc2C)C(=CC(C)O)NC(=O)C(C(C)O)NC(=O)c2csc(n2)-c2ccc(C(N)=O)nc2-c2coc(n2)C(=C)NC1=O (stereo not drawn) [Antibiotic 10381v]
stdout: 25.0
